target: GABA-A receptor; anion channel; test: Inhibition of [3H]flunitrazepam binding to GABA-A receptor of rat cortical membranes
Binning rule for recorded Ki: low (below 0.8 nM), intermediate (0.8 nM to below 3 nM), high (3 nM or more)

These recorded examples may help you get a feel for the data.
CN(C)C(=O)N1Cc2c(-c3noc(C4CC4)n3)ncn2-c2cccc(Cl)c21 : low
O=C(c1ccco1)N1Cc2c(-c3noc(C4CC4)n3)ncn2-c2ccccc21 : low
COC(=O)N1Cc2c(-c3noc(C4CC4)n3)ncn2-c2ccccc21 : intermediate
Cc1cccc2c1N(C(=O)N1CCOCC1)Cc1c(-c3noc(C4CC4)n3)ncn1-2 : high

Next compound, please.
Exercise: read the entry O=C(N1CCOCC1)N1Cc2c(-c3noc(C4CC4)n3)ncn2-c2ccc(Cl)cc21 and state which class it falls under.
intermediate

---

For each entry below, report its [35S] TBPS shift value.
molecular target: GABA-A receptor; anion channel (Rattus norvegicus) (UniProt O09028+P15431+P18506+P18508+P19969+P20236+P23574+P23576+P28471+P28473+P30191+P62813+P63079+P63138+Q91ZM7+Q9ES14); conditions: Brain, Brain membranes
Description: In vitro inhibition of [35S]TBPS binding in rat brain membranes, activity expressed as [35S]TBPS shift value

Solved cases (4 shown):
O=C(N1CCCC1)N1Cc2c(-c3noc(C4CC4)n3)ncn2-c2cccc(Cl)c21 : 0.6
CC(=O)N1Cc2c(-c3noc(C4CC4)n3)ncn2-c2ccccc21 : 0.94
CC(C)c1nc(-c2ncn3c2CN(C(=O)N2CCCC2)c2ccccc2-3)no1 : 0.69
CNC(=O)N1c2ccccc2-n2cnc(-c3noc(C4CC4)n3)c2C1(C)C : 0.71

Please look at the following molecule next.
So what's the measured [35S] TBPS shift for this one? CN(C)C(=O)N1Cc2c(-c3noc(C4CC4)n3)ncn2-c2cccc(Cl)c21
0.62

---

molecular target: GABA-A receptor alpha-1/beta-2/gamma-2 (Homo sapiens); assay: Binding affinity towards [3H]Fnz in alpha-1-beta-2-gamma-2 subtype was measured
Observation Type: pKi
Give bare numbers, as −log10 of the molar value.

So what's the measured pKi for this one? O=C(N1CCOCC1)N1Cc2c(-c3noc(C4CC4)n3)ncn2-c2ccc(Cl)cc21
8.70

---

target: GABA A receptor alpha-6/beta-2/gamma-2 (Homo sapiens, UniProt P18507+P47870+Q16445); assay: Displacement of [3H]Ro-154513 from GABA-A receptor alpha-6-beta-2-gamma-2 subunits expressed in Sf9 cells
Sequence (P47870 whole entry): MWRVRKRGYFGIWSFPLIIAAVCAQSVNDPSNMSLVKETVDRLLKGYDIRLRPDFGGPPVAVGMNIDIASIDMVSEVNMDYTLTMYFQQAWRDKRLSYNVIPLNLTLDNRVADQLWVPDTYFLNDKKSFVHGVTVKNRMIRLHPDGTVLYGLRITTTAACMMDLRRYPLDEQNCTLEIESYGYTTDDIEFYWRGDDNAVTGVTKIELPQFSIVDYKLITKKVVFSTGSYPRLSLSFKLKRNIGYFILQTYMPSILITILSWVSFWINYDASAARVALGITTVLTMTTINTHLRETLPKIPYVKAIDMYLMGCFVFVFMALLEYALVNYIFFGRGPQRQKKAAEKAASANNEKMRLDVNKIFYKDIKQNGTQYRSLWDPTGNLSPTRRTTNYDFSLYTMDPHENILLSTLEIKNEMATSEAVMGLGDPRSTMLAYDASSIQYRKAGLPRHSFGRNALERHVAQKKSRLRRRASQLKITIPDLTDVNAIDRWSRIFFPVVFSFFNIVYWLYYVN
Sequence (P18507 whole entry): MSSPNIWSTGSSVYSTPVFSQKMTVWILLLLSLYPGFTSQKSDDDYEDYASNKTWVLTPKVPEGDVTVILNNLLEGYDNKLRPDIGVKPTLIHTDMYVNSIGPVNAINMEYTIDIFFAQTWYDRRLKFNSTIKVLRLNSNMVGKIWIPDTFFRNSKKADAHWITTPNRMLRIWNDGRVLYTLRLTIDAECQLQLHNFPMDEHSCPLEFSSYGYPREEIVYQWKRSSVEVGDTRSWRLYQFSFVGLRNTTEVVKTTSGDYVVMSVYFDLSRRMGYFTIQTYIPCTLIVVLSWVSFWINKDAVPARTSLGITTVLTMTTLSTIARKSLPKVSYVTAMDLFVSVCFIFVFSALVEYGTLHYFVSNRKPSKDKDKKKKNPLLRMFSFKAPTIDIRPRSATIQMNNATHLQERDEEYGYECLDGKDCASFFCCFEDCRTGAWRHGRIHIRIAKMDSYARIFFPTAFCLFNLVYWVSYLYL
Sequence (Q16445 whole entry): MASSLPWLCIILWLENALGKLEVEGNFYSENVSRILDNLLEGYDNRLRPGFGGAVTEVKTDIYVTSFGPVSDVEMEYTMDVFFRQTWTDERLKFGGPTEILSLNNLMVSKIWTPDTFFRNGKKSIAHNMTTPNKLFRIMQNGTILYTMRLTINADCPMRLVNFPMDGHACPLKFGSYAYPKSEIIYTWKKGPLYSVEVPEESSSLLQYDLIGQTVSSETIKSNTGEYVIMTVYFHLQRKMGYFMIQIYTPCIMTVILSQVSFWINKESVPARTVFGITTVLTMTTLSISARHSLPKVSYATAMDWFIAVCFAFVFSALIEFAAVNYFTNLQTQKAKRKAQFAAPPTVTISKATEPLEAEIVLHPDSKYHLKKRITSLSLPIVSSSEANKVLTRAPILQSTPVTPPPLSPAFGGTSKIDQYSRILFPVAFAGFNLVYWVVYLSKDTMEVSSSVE
Observation Type: pKi
Answers are plain numbers, as −log10 of the molar value.

So what's the measured pKi for this one? CC(=O)N1Cc2c(-c3noc(C4CC4)n3)ncn2-c2ccccc21
6.91

---

tested on: Mus musculus; experiment: Ethanol potentiation activity was measured as loss of righting reflex in male CF-1 mice after oral administration; type: functional
Observation Type: ED50

Solved cases (2 shown):
O=C(N1CCCC1)N1Cc2c(-c3noc(C4CC4)n3)ncn2-c2ccc(Cl)cc21 : > 30 mg/kg
CC1(C)c2c(-c3noc(C4CC4)n3)ncn2-c2ccc(Cl)cc2N1C(=O)N1CCCC1 : > 30 mg/kg

So what's the measured ED50 for this one? CC(C)c1nc(-c2ncn3c2CN(C(=O)N2CCCC2)c2ccccc2-3)no1
> 30 mg/kg

---

For each entry below, report its [35S] TBPS shift value.
molecular target: GABA-A receptor; anion channel (Rattus norvegicus) (UniProt O09028+P15431+P18506+P18508+P19969+P20236+P23574+P23576+P28471+P28473+P30191+P62813+P63079+P63138+Q91ZM7+Q9ES14); details: Brain, Brain membranes
One number for each entry.

CN(C)C(=O)N1c2cc(Cl)ccc2-n2cnc(-c3noc(C4CC4)n3)c2C1(C)C : 0.79
CSC(=O)N1c2ccccc2-n2cnc(-c3noc(C4CC4)n3)c2C1(C)C : 0.8
COC(=O)N1c2ccccc2-n2cnc(-c3noc(C4CC4)n3)c2C1(C)C : 0.8

Please look at the following compound next.
So what's the measured [35S] TBPS shift for this one? CCN(CC)C(=O)N1Cc2c(-c3noc(C4CC4)n3)ncn2-c2ccccc21
0.82

meta.source: ChEMBL document CHEMBL1129282
